Recorded values, source patent US20040024024A1.

tested.target: Human recombinant MMP-2 (Homo sapiens, UniProt P08253)
Construct: made in house; host or cells: MMP-2-transfected p2AHT2 cells
Sequence (P08253 110-660): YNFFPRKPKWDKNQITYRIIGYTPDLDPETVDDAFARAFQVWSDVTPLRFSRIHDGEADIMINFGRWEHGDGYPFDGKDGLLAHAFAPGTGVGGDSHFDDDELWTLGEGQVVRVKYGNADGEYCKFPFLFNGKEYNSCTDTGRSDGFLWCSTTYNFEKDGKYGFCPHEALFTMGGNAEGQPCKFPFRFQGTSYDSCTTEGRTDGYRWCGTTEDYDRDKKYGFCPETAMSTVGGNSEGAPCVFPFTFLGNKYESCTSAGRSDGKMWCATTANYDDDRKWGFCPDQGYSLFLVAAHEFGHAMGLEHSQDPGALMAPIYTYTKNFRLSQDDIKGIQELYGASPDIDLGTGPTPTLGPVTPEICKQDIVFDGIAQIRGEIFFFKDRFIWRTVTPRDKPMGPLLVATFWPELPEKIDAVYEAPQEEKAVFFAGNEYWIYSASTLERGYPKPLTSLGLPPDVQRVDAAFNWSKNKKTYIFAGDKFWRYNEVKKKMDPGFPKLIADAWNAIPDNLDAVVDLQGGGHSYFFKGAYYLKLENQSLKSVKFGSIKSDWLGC
assay.comment: In vitro MMP inhibition, IC50 determination (fluorogenic substrate I)
Assay type: biochemical
test.conditions: value outside parentheses (Ki in parenthesis)
property: pIC50
Answers are plain numbers, as −log10 of the molar value.

**Q:** Fill: pIC50 (Human recombinant MMP-2 (Homo sapiens, UniProt P08253)) for this compound O=C(CCCCOc1ccc(S(=O)(=O)C2(C(=O)NO)CCOCC2)cc1)c1cccc(-c2ccccc2)c1
**A:** 7.96

**Q:** Output reported pIC50 of the compound COc1ccc(S(=O)(=O)CCCCOc2ccc(S(=O)(=O)C3(C(=O)NO)CCOCC3)cc2)cc1 on Human recombinant MMP-2 (Homo sapiens, UniProt P08253).
**A:** 7.70

**Q:** # lookup: Human recombinant MMP-2 (Homo sapiens, UniProt P08253) pIC50, key = CCOc1ccc(-c2nnc(CCCOc3ccc(S(=O)(=O)C4(C(=O)NO)CCOCC4)cc3)o2)cc1OCC
**A:** 7.30

Proceeding to the next compound to report its pIC50.
**Q:** Report pIC50 under test system Human recombinant MMP-2 (Homo sapiens, UniProt P08253) for CCCC(=O)C(C)CCOc1ccc(S(=O)(=O)C2(C(=O)NO)CCOCC2)cc1 (stereo not shown) .
**A:** 7.81

---

tested.target: Human recombinant MMP-13 (Homo sapiens, UniProt P45452)
Construct: made in house; host or cells: baculovirus / insect cells
assay.comment: In vitro MMP inhibition, IC50 determination (fluorogenic substrate I)
Format: biochemical
test.conditions: value outside parenthesis
Could you please report measured IC50 for the items listed next?
Answers are plain numbers, in nM.

# count of solved cases: 6
**Q:** Provide the reported IC50 (system: Human recombinant MMP-13 (Homo sapiens, UniProt P45452)) for O=C(NO)C1(S(=O)(=O)c2ccc(OCCCc3nc(C4CCCCC4)no3)cc2)CCN(C2CC2)CC1
**A:** 7

**Q:** Under Human recombinant MMP-13 (Homo sapiens, UniProt P45452): report IC50 of O=C(NO)C1(S(=O)(=O)c2ccc(OCCCc3nc(-c4ccc(OC(F)(F)F)cc4)no3)cc2)CCN(Cc2ccccc2)CC1 .
**A:** 15.5

**Q:** Report IC50 on Human recombinant MMP-13 (Homo sapiens, UniProt P45452) for this entry: O=C(NO)C1(S(=O)(=O)c2ccc(OCCc3cccc(-c4ccc(Cl)c(Cl)c4)c3)cc2)CCOCC1
**A:** 21.6

**Q:** Specify the recorded IC50 for COc1ccc2cc(C(=O)CCCCOc3ccc(S(=O)(=O)C4(C(=O)NO)CCN(C5CC5)CC4)cc3)ccc2c1 , system: Human recombinant MMP-13 (Homo sapiens, UniProt P45452).
**A:** 0.2

**Q:** System Human recombinant MMP-13 (Homo sapiens, UniProt P45452). Read-out IC50. Item O=C(NO)C1(S(=O)(=O)c2ccc(OCCc3cccc(-c4ccccc4Cl)c3)cc2)CCOCC1 . Report value.
**A:** 5.2

**Q:** Please report the measured IC50 for O=C(NO)C1(S(=O)(=O)c2ccc(OCCc3cccc(-c4ccc(OC(F)(F)F)cc4)c3)cc2)CCOCC1 tested on Human recombinant MMP-13 (Homo sapiens, UniProt P45452).
**A:** 37.9

Fill in IC50 for each of the 2 compounds listed.
1. O=C1Nc2ccc(-c3noc(CCCOc4ccc(S(=O)(=O)C5(C(=O)NO)CCN(C6CC6)CC5)cc4)n3)cc21
2. O=C(CCCOc1ccc(S(=O)(=O)C2(C(=O)NO)CCOCC2)cc1)Nc1cccc(OC(F)(F)F)c1

**A:**
1: 7.5; 2: 0.3

Hello, I would appreciate it if you could give IC50 for each entry below.
1. CC(=O)NC(C)(C)CCOc1ccc(S(=O)(=O)C2(C(=O)NO)CCOCC2)cc1
2. O=C(NO)C1(S(=O)(=O)c2ccc(OCCc3cccc(-c4cccnc4)c3)cc2)CCOCC1
3. COc1ccccc1-c1nnc(CCCOc2ccc(S(=O)(=O)C3(C(=O)NO)CCOCC3)cc2)o1
4. COc1ccc(/C(C#N)=C/CCCOc2ccc(S(=O)(=O)C3(C(=O)NO)CCN(C4CC4)CC3)cc2)cc1
5. O=C(NO)C1(S(=O)(=O)c2ccc(OCCCc3nnc(-c4ccc(Cl)cc4)o3)cc2)CCOCC1
6. O=C(NO)C1(S(=O)(=O)c2ccc(OCCc3cccc(-c4cccc(F)c4)c3)cc2)CCOCC1
7. O=C(NO)C1(S(=O)(=O)c2ccc(OCCCc3nnc(CC4CCCCC4)o3)cc2)CCOCC1

**A:**
[203, 0.2, 5.7, 0.1, 1.8, 2, 3]

// for each compound in input: emit IC50
1. CCCc1ccc(-c2nc(CCCOc3ccc(S(=O)(=O)C4(C(=O)NO)CCN(CCOC)CC4)cc3)oc2C)cc1
2. Cc1cc(-c2cccc(CCOc3ccc(S(=O)(=O)C4(C(=O)NO)CCOCC4)cc3)c2)ccc1F
3. CC(C)CCc1cccc(CCCOc2ccc(S(=O)(=O)C3(C(=O)NO)CCOCC3)cc2)c1
4. COc1ccc(-c2nnn(CCCOc3ccc(S(=O)(=O)C4(C(=O)NO)CCOCC4)cc3)n2)cc1
5. COCCN1CCC(C(=O)NO)(S(=O)(=O)c2ccc(OCCCn3nc(C(F)(F)F)cc3-c3ccc(OC)cc3)cc2)CC1
6. O=C(NO)C1(S(=O)(=O)c2ccc(OCCCc3csc(-c4ccccc4)n3)cc2)CCOCC1
7. O=C(O)CCCOc1ccc(S(=O)(=O)C2(C(=O)NO)CCOCC2)cc1

**A:**
1. 15.8
2. 5.8
3. 15.3
4. 0.2
5. 835
6. 5.5
7. 304
